The entries below are paired with their reported pIC50.
# system-tested: Phospho-EGFR (Tyr1068) in H1975 C797S cells (CRISPR-edited EGFR C797S) (Homo sapiens, UniProt P00533, C797S/L858R/T790M)
# Sequence (P00533 25-1210 T790M/C797S/L858R): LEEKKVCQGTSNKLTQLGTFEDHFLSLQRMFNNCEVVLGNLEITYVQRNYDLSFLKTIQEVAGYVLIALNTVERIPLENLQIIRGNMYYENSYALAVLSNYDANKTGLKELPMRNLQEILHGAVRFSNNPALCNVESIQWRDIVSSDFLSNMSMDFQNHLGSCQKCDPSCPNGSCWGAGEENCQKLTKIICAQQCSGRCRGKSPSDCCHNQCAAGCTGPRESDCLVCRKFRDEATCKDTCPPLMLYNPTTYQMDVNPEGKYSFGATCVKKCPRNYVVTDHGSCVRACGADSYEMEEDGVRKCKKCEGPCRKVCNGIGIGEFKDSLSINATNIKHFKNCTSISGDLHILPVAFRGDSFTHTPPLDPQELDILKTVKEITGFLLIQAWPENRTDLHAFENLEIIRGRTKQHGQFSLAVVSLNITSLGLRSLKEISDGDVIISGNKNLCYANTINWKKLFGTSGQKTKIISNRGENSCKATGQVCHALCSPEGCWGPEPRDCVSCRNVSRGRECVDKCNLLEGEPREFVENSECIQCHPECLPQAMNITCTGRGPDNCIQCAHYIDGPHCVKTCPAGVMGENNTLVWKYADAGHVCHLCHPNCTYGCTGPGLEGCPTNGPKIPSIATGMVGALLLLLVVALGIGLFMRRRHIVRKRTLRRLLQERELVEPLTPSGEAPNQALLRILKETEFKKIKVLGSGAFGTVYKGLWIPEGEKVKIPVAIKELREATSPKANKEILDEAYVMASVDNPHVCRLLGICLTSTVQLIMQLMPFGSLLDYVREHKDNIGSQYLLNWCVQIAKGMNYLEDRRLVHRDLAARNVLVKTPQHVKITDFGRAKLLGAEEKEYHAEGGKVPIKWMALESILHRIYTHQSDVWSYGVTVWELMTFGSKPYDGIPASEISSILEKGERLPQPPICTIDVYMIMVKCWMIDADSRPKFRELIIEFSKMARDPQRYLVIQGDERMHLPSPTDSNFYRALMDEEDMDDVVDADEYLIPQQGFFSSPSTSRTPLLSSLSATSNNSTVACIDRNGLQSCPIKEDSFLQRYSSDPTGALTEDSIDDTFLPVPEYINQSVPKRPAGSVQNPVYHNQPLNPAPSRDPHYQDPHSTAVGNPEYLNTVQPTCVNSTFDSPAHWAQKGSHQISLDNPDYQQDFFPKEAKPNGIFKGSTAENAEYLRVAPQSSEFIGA
# assay-protocol: HTRF pEGFR/total EGFR in H1975 C797S cells
# experimental-conditions: ratio pEGFR/total EGFR, compound 3 hours
pIC50: −log10 of the molar value.

| compound | pIC50 |
| --- | --- |
| C#Cc1c(C)c(=O)n([C@H]2CC[C@H](NC(C)=O)CC2)c2nc(Nc3ccc(N4CCN(C)CC4)cc3)ncc12 | 5.52 to 6.00 |
| C#Cc1cc(=O)n(-c2ccccc2)c2nc(Nc3ccc(N4CCN(C)CC4)cc3)ncc12 | 5.52 to 6.00 |
| C#Cc1cc(=O)n(C)c2nc(Nc3ccc(N4CCN(C)CC4)c(OC4CCCC4)c3)ncc12 | > 6.30 |
| C#Cc1cc(=O)n([C@H]2CC[C@@H](N(C)C(=O)CN(C)C)CC2)c2nc(Nc3ccccc3OC)ncc12 | < 5.52 |
| C#Cc1cc(=O)n(-c2ccc(NC(=O)C3CC3)cc2)c2nc(Nc3ccccc3OC)ncc12 | < 5.52 |
| C#Cc1cc(=O)n(-c2ccccc2)c2nc(Nc3ccc4c(c3)CCNCC4)ncc12 | > 6.30 |
| C#Cc1cc(=O)n(-c2ccccc2)c2nc(Nc3ccc(C4CCN(C)CC4)cc3)ncc12 | > 6.30 |
| C#Cc1cc(=O)[nH]c2nc(Nc3ccccc3OC)ncc12 | < 5.52 |
| C#Cc1cc(=O)n(-c2ccccc2)c2cc(Nc3ccccc3OC)ncc12 | < 5.52 |
| C#Cc1cc(=O)n(-c2ccccc2)c2nc(Nc3ccc(N(C)CCCN(C)C)cc3)ncc12 | > 6.30 |
| C#Cc1cc(=O)n(-c2ccccc2)c2nc(Nc3ccc(N4CCOCC4)cc3)ncc12 | > 6.30 |
| C#Cc1cc(=O)n(-c2ccccc2)c2nc(Nc3ccc(N4CCN(C(C)C)CC4)cc3)ncc12 | > 6.30 |
| C#Cc1cc(=O)n(C2CNC(=O)C2)c2nc(Nc3ccc(N4CCN(C)CC4)cc3)ncc12 (stereo not shown) | < 5.52 |
| C#Cc1c(C)c(=O)n(C)c2nc(Nc3ccc(N4CCN(C)CC4)cc3)ncc12 | < 5.52 |
| C#Cc1cc(=O)n(C)c2nc(Nc3cccc(N(C)C(=O)CN(C)C)c3)ncc12 | < 5.52 |
| C#Cc1cc(=O)n([C@H]2CC[C@@H](CO)CC2)c2nc(Nc3ccc(N(C)CCN(C)C)cc3)ncc12 | 6.00 to 6.30 |

---

# system-tested: Phospho-EGFR (Tyr1068) in A431 cells (Homo sapiens)
# Construct: endogenous in cells; host or cells: A431
# Sequence (P00533 25-1210): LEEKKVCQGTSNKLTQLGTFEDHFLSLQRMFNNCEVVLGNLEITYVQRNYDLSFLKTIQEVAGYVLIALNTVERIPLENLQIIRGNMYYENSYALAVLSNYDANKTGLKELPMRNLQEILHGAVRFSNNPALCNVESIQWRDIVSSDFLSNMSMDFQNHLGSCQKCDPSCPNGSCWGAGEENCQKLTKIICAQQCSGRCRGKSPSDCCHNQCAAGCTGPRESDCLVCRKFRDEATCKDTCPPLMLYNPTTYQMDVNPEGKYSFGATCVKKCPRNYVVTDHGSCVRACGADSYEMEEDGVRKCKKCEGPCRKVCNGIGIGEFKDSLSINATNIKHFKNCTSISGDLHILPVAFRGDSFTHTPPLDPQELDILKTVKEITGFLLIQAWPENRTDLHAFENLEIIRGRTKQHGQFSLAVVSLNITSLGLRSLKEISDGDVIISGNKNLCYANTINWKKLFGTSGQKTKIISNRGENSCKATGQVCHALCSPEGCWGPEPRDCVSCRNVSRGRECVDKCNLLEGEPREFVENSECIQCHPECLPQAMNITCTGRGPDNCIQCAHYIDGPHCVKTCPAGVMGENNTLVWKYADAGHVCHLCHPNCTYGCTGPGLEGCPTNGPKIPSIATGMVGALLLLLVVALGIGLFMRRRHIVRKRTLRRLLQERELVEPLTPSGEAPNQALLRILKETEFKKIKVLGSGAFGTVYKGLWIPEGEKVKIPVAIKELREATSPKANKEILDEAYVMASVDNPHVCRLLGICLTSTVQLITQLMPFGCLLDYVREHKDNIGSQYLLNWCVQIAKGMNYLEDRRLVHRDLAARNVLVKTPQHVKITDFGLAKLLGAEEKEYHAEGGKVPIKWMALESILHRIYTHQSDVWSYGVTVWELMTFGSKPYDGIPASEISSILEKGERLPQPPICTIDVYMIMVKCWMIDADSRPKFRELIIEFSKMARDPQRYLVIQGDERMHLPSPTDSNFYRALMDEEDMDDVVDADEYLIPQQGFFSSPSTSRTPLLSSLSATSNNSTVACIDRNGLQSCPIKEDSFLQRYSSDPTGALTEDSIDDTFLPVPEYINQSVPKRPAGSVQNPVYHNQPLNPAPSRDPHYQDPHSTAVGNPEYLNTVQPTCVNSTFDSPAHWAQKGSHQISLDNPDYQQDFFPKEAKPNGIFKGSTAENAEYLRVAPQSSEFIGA
# assay-protocol: HTRF pEGFR/total EGFR in A431 cells with EGF stimulation
# Format: cell-based
# experimental-conditions: ratio pEGFR/total EGFR, compound 2.5 hours then 100 ng/ml EGF 30 mins
pIC50: −log10 of the molar value.
observable: pIC50

| query-smiles | assay-result |
| --- | --- |
| C#Cc1cc(=O)n(-c2ccccc2)c2nc(Nc3ccc(N4CCN(CCO)CC4)cc3)ncc12 | 5.52 to 6.00 |
| C#Cc1c(C)c(=O)n(Cc2ccnn2C)c2nc(Nc3ccc(N4CCN(C)CC4)cc3)ncc12 | < 5.52 |
| C#Cc1cc(=O)n(-c2ccccc2)c2nc(Nc3ccc(N4CCN(C5COC5)CC4)cc3)ncc12 | 5.52 to 6.00 |
| C#Cc1c(-c2ccccc2Cl)c(=O)n(C)c2nc(Nc3ccc(OCCN(C)C)cc3)ncc12 | 6.00 to 6.30 |
